Ref: ChEMBL document CHEMBL3352689

Assay Name: Volume of distribution at steady state in guinea pig at 1 mg/kg, iv
Assay type: ADME, organism-based, Cavia porcellus
Parameters: dose 1 mg/kg, route intravenous
Run Conditions: in vivo, read-out: Vdss
Endpoint Name: Vd (L/kg)

>  <Smiles Code>
COc1cccc(CNC(=O)c2nc3ccc(F)c(OCCc4ccc(C(=O)[O-])cc4)c3c(=O)[nH]2)c1.[Na+]

>  <Recorded Number>
5.39

$$$$

* * *

Assay Name: Cmax in rat at 10 mg/kg, po
Assay type: ADME, organism-based
Design: dose 10 mg/kg, route oral
Run Conditions: in vivo
Endpoint Name: Cmax (ng/mL)

>  <Smiles Code>
COc1cccc(CNC(=O)c2nc3ccc(F)c(OCCc4ccc(C(=O)[O-])cc4)c3c(=O)[nH]2)c1.[Na+]

>  <Endpoint Name>
Cmax

>  <Recorded Number>
439

$$$$
